Dear all, this message contains pIC50 results, target or system Glycogen synthase kinase-3 beta (Homo sapiens).
pIC50: −log10 of the molar value.
measurement-kind: pIC50

- test-smiles: "O=C(/C=C/c1cnc2[nH]cc(-c3ccccc3)c2c1)NCCc1cccnc1"
  measurement-kind: "pIC50"
  result-operator: "="
  assay-value: 7.49
- test-smiles: "O=C(CNC(=O)c1cnc2[nH]ccc2c1)NCCc1c[nH]c2ccccc12"
  measurement-kind: "pIC50"
  result-operator: "<"
  assay-value: 4.30
- test-smiles: "O=C(CNC(=O)c1ccc2[nH]cc(-c3ccccc3)c2c1)NCCc1c[nH]c2ccccc12"
  measurement-kind: "pIC50"
  result-operator: "<"
  assay-value: 4.30
- test-smiles: "C[C@@H](NC(=O)/C=C/c1cnc2[nH]cc(-c3ccccc3)c2c1)[C@@H](O)c1ccccc1"
  measurement-kind: "pIC50"
  result-operator: "="
  assay-value: 6.74
- test-smiles: "O=C(CNC(=O)c1cnc2[nH]cc(-c3ccccc3)c2c1)NCCc1c[nH]cn1"
  measurement-kind: "pIC50"
  result-operator: "="
  assay-value: 5.58
- test-smiles: "O=C(CNC(=O)c1cnc2[nH]c(-c3ccccc3)cc2c1)NCCc1c[nH]c2ccccc12"
  measurement-kind: "pIC50"
  result-operator: "<"
  assay-value: 4.30
- test-smiles: "O=C(CNC(=O)c1cnc2[nH]cc(C(=O)c3ccccc3)c2c1)NCCc1c[nH]c2ccccc12"
  measurement-kind: "pIC50"
  result-operator: "="
  assay-value: 4.80
- test-smiles: "O=C(/C=C/c1cnc2[nH]cc(-c3ccccc3)c2c1)NCCc1c[nH]cn1"
  measurement-kind: "pIC50"
  result-operator: "="
  assay-value: 7.31
- test-smiles: "O=C(/C=C/c1cnc2[nH]cc(-c3ccccc3)c2c1)NCCc1ccccn1"
  measurement-kind: "pIC50"
  result-operator: "="
  assay-value: 7.72
- test-smiles: "O=C(/C=C/c1cnc2[nH]cc(-c3ccccc3)c2c1)N[C@@H](CO)Cc1ccccc1"
  measurement-kind: "pIC50"
  result-operator: "="
  assay-value: 6.12
